Molecular target: T1, 4H2585-bN
T1 chain: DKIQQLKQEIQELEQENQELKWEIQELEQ
Test: two-hybrid library CCNG1;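 further: natural log of median RNA to DNA barcode read ratio; higher means stronger binding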
Some binders, each annotated with its measured interaction score.
Lab note: jot down the number only; don't add units.

Binder	interaction score
DKIQQLEQKNQELKQENQELEWKIQELKQ [4H2518-bN]	0.403
DEIQQLEQENQELKQKIQELKWENQELEQ [4H235-bN]	-0.77
DKIQQLEQEIQELKQENQELKWKNQELEQ [4H2143-bN]	-1.01
DKIQQLEQKNQELEQEIQELKWENQELKQ [4H2444-bN]	-0.578

Consider the additional binder presented here.
Entry DEIQQLEQENQELEQKIQELEWKIQELKQ [4H166-bN] : reported interaction score = ?
-0.823
